Settings: in propylene glycol, 323.15 K
quantity_name: solubility (mole fraction)
Form field (numeric): enter value without unit.

solubility (mole fraction) reading for `O=C(NC(=O)c1c(F)cccc1F)Nc1cc(Cl)c(F)c(Cl)c1F` : 0.0327

----------
Settings: in DMF, 288.15 K
quantity_name: solubility (mole fraction)
Response field accepts a number only; no unit should be typed.

Entry `O=C(NC(=O)c1c(F)cccc1F)Nc1cc(Cl)c(F)c(Cl)c1F` ; solubility (mole fraction) = 0.2

----------
Conditions: in propylene glycol, 283.15 K
quantity_name: solubility (mole fraction)
I only need the number, thanks.

Reported solubility (mole fraction) ( `O=C(NC(=O)c1c(F)cccc1F)Nc1cc(Cl)c(F)c(Cl)c1F` ) = 0.0212

----------
Settings: in water, 323.15 K
quantity_name: solubility (mole fraction)
# respond with the number and nothing more

Form: compound = `O=C(NC(=O)c1c(F)cccc1F)Nc1cc(Cl)c(F)c(Cl)c1F` ; solubility (mole fraction) = 1.47e-05

----------
Conditions: in water, 288.15 K
quantity_name: solubility (mole fraction)

According to the records, this compound `O=C(NC(=O)c1c(F)cccc1F)Nc1cc(Cl)c(F)c(Cl)c1F` displays solubility (mole fraction) of 8.19e-06

----------
Conditions: in water, 298.15 K
quantity_name: solubility (mole fraction)

Noted for `O=C(NC(=O)c1c(F)cccc1F)Nc1cc(Cl)c(F)c(Cl)c1F` : its solubility (mole fraction) reads 9.72e-06

----------
Settings: in water, 283.15 K
quantity_name: solubility (mole fraction)
The answer should be written as a number, with no unit following it.

Field solubility (mole fraction) (entry `O=C(NC(=O)c1c(F)cccc1F)Nc1cc(Cl)c(F)c(Cl)c1F` ) reads 7.49e-06

----------
Details: in DMF, 303.15 K
quantity_name: solubility (mole fraction)
The response must contain the number and no unit.

Looking up `O=C(NC(=O)c1c(F)cccc1F)Nc1cc(Cl)c(F)c(Cl)c1F` , I see its solubility (mole fraction) listed as 0.243

----------
Conditions: in methanol, 323.15 K
quantity_name: solubility (mole fraction)
Respond using a number only.

Entry `O=C(NC(=O)c1c(F)cccc1F)Nc1cc(Cl)c(F)c(Cl)c1F` ; solubility (mole fraction) = 0.133

----------
Details: in DMF, 318.15 K
quantity_name: solubility (mole fraction)
// no unit, no text: just the number

So for `O=C(NC(=O)c1c(F)cccc1F)Nc1cc(Cl)c(F)c(Cl)c1F` , the logged solubility (mole fraction) turned out to be 0.292

----------
Settings: in ethanol, 318.15 K
quantity_name: solubility (mole fraction)
Just the number.

Value of measured solubility (mole fraction) for the entry `O=C(NC(=O)c1c(F)cccc1F)Nc1cc(Cl)c(F)c(Cl)c1F` : 0.0744

----------
Conditions: in ethanol, 303.15 K
quantity_name: solubility (mole fraction)
Would you mind answering with just the numeric figure?

For this molecule ( `O=C(NC(=O)c1c(F)cccc1F)Nc1cc(Cl)c(F)c(Cl)c1F` ), measured solubility (mole fraction) is 0.0647

----------
Details: in propylene glycol, 298.15 K
quantity_name: solubility (mole fraction)

Looking up `O=C(NC(=O)c1c(F)cccc1F)Nc1cc(Cl)c(F)c(Cl)c1F` , I see its solubility (mole fraction) listed as 0.0255

----------
Settings: in methanol, 278.15 K
quantity_name: solubility (mole fraction)

Note to self: solubility (mole fraction) recorded for `O=C(NC(=O)c1c(F)cccc1F)Nc1cc(Cl)c(F)c(Cl)c1F` was 0.0672

Cited source: BigSolDB 2.1
